# Test system: E. coli GC 2235
# test description: MIC, broth microdilution
# experimental context: Escherichia coli, GC2235, read-out: MINIMAL INHIBITORY CONCENTRATION MIC, pre-incubated in Mouse Serum
reported metric: MIC (µg/mL)
Please state the figure in µg/mL; there is no need to write the unit.

Recorded results for 3 compounds are shown here.
smiles record: CC(C)C(=O)OCOC(=O)N(CC(=O)Nc1cc(N(C)C)c2c(c1O)C(=O)C1=C(O)[C@]3(O)C(=O)C(C(N)=O)=C(O)[C@@H](N(C)C)[C@@H]3C[C@@H]1C2)C(C)(C)C
reported metric: MIC
observed value: 0.5
//
smiles record: CCCCN(CC(=O)Nc1cc(N(C)C)c2c(c1O)C(=O)C1=C(O)[C@]3(O)C(=O)C(C(N)=O)=C(O)[C@@H](N(C)C)[C@@H]3C[C@@H]1C2)C(=O)OCOC(=O)c1ccc(-c2ccccc2)cc1
reported metric: MIC
observed value: 0.5
//
smiles record: CCC(C)(C)C(=O)OCOC(=O)N(CC(=O)Nc1cc(N(C)C)c2c(c1O)C(=O)C1=C(O)[C@]3(O)C(=O)C(C(N)=O)=C(O)[C@@H](N(C)C)[C@@H]3C[C@@H]1C2)C(C)(C)C
reported metric: MIC
observed value: 2

Item "CCCN(CC(=O)Nc1cc(N(C)C)c2c(c1O)C(=O)C1=C(O)[C@]3(O)C(=O)C(C(N)=O)=C(O)[C@@H](N(C)C)[C@@H]3C[C@@H]1C2)C(=O)OCOC(=O)c1ccc(-c2ccccc2)cc1" has what recorded MIC?
0.5

----------
# Tested on: S. aureus GC 6335
# test description: MIC, broth microdilution
# experimental context: Staphylococcus aureus, GC6335, read-out: MINIMAL INHIBITORY CONCENTRATION MIC, Water
reported metric: MIC (µg/mL)
Please state the figure in µg/mL; there is no need to write the unit.

Item CN(C)c1cc(NC(=O)CN(C(=O)OCOC(=O)C2CCCCC2)C(C)(C)C)c(O)c2c1C[C@H]1C[C@H]3[C@H](N(C)C)C(O)=C(C(N)=O)C(=O)[C@@]3(O)C(O)=C1C2=O [Example 50] has what recorded MIC?
1

Item CN(C)c1cc(NC(=O)CN(C(=O)OCOC(=O)c2ccc(F)cc2)C(C)(C)C)c(O)c2c1C[C@H]1C[C@H]3[C@H](N(C)C)C(O)=C(C(N)=O)C(=O)[C@@]3(O)C(O)=C1C2=O [Example 52] has what recorded MIC?
4

Item Cc1cc(C)cc(C(=O)OCOC(=O)N(CC(=O)Nc2cc(N(C)C)c3c(c2O)C(=O)C2=C(O)[C@]4(O)C(=O)C(C(N)=O)=C(O)[C@@H](N(C)C)[C@@H]4C[C@@H]2C3)C(C)(C)C)c1 [Example 51] has what recorded MIC?
1

Item CCCCOC(=O)N(CC(=O)Nc1cc(N(C)C)c2c(c1O)C(=O)C1=C(O)[C@]3(O)C(=O)C(C(N)=O)=C(O)[C@@H](N(C)C)[C@@H]3C[C@@H]1C2)C(C)(C)C [Example 58] has what recorded MIC?
4

----------
# System: Staph.
# test description: Range of MIC for Staph. strains, including MRSA
# experimental context: Staphylococcus aureus, MRSA, read-out: Range of MIC, Staph (Mouse Serum)
reported metric: MIC

smiles record: CCCCN(CC(=O)Nc1cc(N(C)C)c2c(c1O)C(=O)C1=C(O)[C@]3(O)C(=O)C(C(N)=O)=C(O)[C@@H](N(C)C)[C@@H]3C[C@@H]1C2)C(=O)OCOC(=O)CC(C)(C)C
target entity: Staph.
reported metric: MIC
observed value: 2 to 4 µg/mL

smiles record: CCCCCCC(=O)OCOC(=O)N(CCCC)CC(=O)Nc1cc(N(C)C)c2c(c1O)C(=O)C1=C(O)[C@]3(O)C(=O)C(C(N)=O)=C(O)[C@@H](N(C)C)[C@@H]3C[C@@H]1C2
target entity: Staph.
reported metric: MIC
observed value: 1 to 4 µg/mL

Item "CCCN(CC(=O)Nc1cc(N(C)C)c2c(c1O)C(=O)C1=C(O)[C@]3(O)C(=O)C(C(N)=O)=C(O)[C@@H](N(C)C)[C@@H]3C[C@@H]1C2)C(=O)OCOC(=O)C1CCC1" has what recorded MIC?
0.5 to 4 µg/mL
